biological target: human CCR8 (human) (UniProt P51685); assay: cell-based or functional assay
Sequence (P51685 whole entry): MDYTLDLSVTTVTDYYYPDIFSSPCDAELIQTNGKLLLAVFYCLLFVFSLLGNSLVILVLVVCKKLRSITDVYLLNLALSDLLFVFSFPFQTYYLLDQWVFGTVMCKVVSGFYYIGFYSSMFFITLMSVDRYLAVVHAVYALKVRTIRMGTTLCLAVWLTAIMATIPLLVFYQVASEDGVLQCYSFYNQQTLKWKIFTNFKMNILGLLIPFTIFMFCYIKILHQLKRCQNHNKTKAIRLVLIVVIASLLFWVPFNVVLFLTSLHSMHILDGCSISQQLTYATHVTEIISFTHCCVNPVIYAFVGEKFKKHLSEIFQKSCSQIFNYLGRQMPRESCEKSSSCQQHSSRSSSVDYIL
Value type: EC50 of activation of Jurkat-human FcγRIIIa(158V)-NFAT with 293F-hCCR8 target cells (µg/mL)
Answer in µg/mL, number only, no unit symbol.

559E1B10_hzH0L0_hIgG1 (antibody, V domains shown) VH: QVQLVQSGAEVKKPGASVKVSCKASGYTFTDYYVNWVRQAPGQGLEWMGVINPHNGDTRYNQKFKGRVTMTRDTSTSTVYMELSSLRSEDTAVYYCASWLRRGYYFDSWGQGTTVTVSS VL: EIVLTQSPATLSLSPGERATLSCRASQSISDYLHWYQQKPGQAPRLLIYYVSQSISGIPARFSGSGSGTDFTLTISSLEPEDFAVYYCQNGHSFPLTFGGGTKVEIKR : 0.855
B16_hIgG1 (antibody, from another filing, V domains shown) VH: EVQLVESGGGLVQPGGSLKLSCAASGFTFNTYAMNWVRQASGKGLEWVGRIRSKSNNYATYYADSVKDRFTISRDDSKNTAYLQMNSLKTEDTAVYYCVRGLLRYRFFDVWGQGTTVTVSS VL: DIVMTQSPLSLPVTPGEPASISCRSSKSLLHSNGNTYLYWFLQKPGQSPQLLIYRMSNLASGVPDRFSGSGSGTDFTLKISRVEAEDVGVYYCMQHLEYPFTFGGGTKVEIKR : 0.0131
559E1B10_hzH2L0_hIgG1 (antibody, V domains shown) VH: QVQLVQSGAEVKKPGASVKVSCKASGYTFTDYYVNWVRQAPGQGLEWIGVINPHNGDTRYNQKFKGRATLTVDKSTSTVYMELSSLRSEDTAVYYCASWLRRGYYFDSWGQGTTVTVSS VL: EIVLTQSPATLSLSPGERATLSCRASQSISDYLHWYQQKPGQAPRLLIYYVSQSISGIPARFSGSGSGTDFTLTISSLEPEDFAVYYCQNGHSFPLTFGGGTKVEIKR : 0.706

Now for the binder whose EC50 of activation of Jurkat-human FcγRIIIa(158V)-NFAT with 293F-hCCR8 target cells we want.
Recorded result, 559E1B10_hzH1L0_hIgG1 (antibody, V domains shown) VH: QVQLVQSGAEVKKPGASVKVSCKASGYTFTDYYVNWVRQAPGQGLEWMGVINPHNGDTRYNQKFKGRVTMTVDKSTSTVYMELSSLRSEDTAVYYCASWLRRGYYFDSWGQGTTVTVSS VL: EIVLTQSPATLSLSPGERATLSCRASQSISDYLHWYQQKPGQAPRLLIYYVSQSISGIPARFSGSGSGTDFTLTISSLEPEDFAVYYCQNGHSFPLTFGGGTKVEIKR , EC50 of activation of Jurkat-human FcγRIIIa(158V)-NFAT with 293F-hCCR8 target cells: 1.69
